system: hESC-hepatocyte endoderm cells; assay: LDH cytotoxicity assay in hESC-derived hepatocyte endoderm; format: cell-based, human; conditions: Table 1
quantity: LDH assay positive, hepatocyte endoderm cells

{"columns": ["molecule", "assay target", "experimental value"],
 "data": [
  ["C[C@H]1O[C@@H](O[C@H]2[C@@H](O)C[C@H](O[C@H]3[C@@H](O)C[C@H](O[C@H]4CC[C@@]5(C)[C@H](CC[C@@H]6[C@@H]5C[C@@H](O)[C@]5(C)[C@@H](C7=CC(=O)OC7)CC[C@]65O)C4)O[C@@H]3C)O[C@@H]2C)C[C@H](O)[C@@H]1O [Digoxin, digoxin]", "hESC-hepatocyte endoderm cells", "−/+ (10% positive cells)"],
  ["C[C@H]1O[C@@H](O[C@H]2[C@@H](O)C[C@H](O[C@H]3[C@@H](O)C[C@H](O[C@H]4CC[C@@]5(C)[C@H](CC[C@@H]6[C@@H]5CC[C@]5(C)[C@@H](C7=CC(=O)OC7)CC[C@]65O)C4)O[C@@H]3C)O[C@@H]2C)C[C@H](O)[C@@H]1O [Digitoxin, digitoxin]", "hESC-hepatocyte endoderm cells", "−/+ (10% positive cells)"]
]}
